Below, each entry is listed with its recorded IC50.
Target: Histamine H3 receptor (Cavia porcellus)
Sequence (Q9JI35 whole entry): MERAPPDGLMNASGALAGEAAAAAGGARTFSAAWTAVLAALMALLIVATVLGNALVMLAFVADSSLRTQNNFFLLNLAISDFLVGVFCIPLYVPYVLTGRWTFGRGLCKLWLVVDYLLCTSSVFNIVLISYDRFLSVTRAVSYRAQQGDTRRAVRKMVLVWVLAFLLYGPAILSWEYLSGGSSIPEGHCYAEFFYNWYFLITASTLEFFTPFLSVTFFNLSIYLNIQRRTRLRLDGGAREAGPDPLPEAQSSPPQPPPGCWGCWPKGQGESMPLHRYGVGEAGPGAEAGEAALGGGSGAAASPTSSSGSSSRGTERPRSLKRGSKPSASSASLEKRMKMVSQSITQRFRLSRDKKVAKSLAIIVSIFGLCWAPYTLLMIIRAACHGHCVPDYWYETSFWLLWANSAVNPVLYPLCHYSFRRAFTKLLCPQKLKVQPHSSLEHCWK
Test: Histamine H3 receptor agonist activity was assessed by the inhibition of the electrically evoked twitch response of the guinea-pig ileum.
Format: functional, tissue-based
readout.name: IC50

{"molecule.smiles": "N=C(N)SCCc1cnc[nH]1", "readout.name": "IC50", "experimental.value": "4.6 nM"}
{"molecule.smiles": "N=C(N)CCCc1c[nH]cn1", "readout.name": "IC50", "experimental.value": "1.1 nM"}
